Listed here: items and their measured ND 50 MN assay, live virus.
system: Spike protein on live SARS-CoV-2 Delta strain (SARS-CoV-2 Delta (B.1.617.2), UniProt P0DTC2 14-1273)
experimental protocol: cell-based or functional assay
experimental readout: ND 50 MN assay, live virus (nM)

>  <binder>
C1 trimer (VHH) QVQLVESGGGLVQPGGSLRLSCAASGFTNDFYSIAWFRQAPGKEREGVSWLSVSDNTPTYVDSVKDRFTISRHNANNTVYLQMNMLKPEDTAIYYCAAGRFAGRDTWPSSYDYWGQGTQVTVSSGSGSGSQVQLVESGGGLVQPGGSLRLSCAASGFTNDFYSIAWFRQAPGKEREGVSWLSVSDNTPTYVDSVKDRFTISRHNANNTVYLQMNMLKPEDTAIYYCAAGRFAGRDTWPSSYDYWGQGTQVTVSSGSGSGSQVQLVESGGGLVQPGGSLRLSCAASGFTNDFYSIAWFRQAPGKEREGVSWLSVSDNTPTYVDSVKDRFTISRHNANNTVYLQMNMLKPEDTAIYYCAAGRFAGRDTWPSSYDYWGQGTQVTVSS

>  <experimental readout>
ND 50 MN assay, live virus

>  <result value>
3.1

$$$$
>  <binder>
C5 trimer (VHH, also called trimeric C5 nanobody; C5-6GS-C5-6GS-C5) QVQLVESGGGSVQAGGSLTLSCVASGVTLGRHAIGWFRQAPGKERERVSCIRTFDGITSYVESTKGRFTISSNNAMNTVYLQMNSLKPEDTAVYFCALGVTAACSDNPYFWGQGTQVTVSSGSGSGSQVQLVESGGGSVQAGGSLTLSCVASGVTLGRHAIGWFRQAPGKERERVSCIRTFDGITSYVESTKGRFTISSNNAMNTVYLQMNSLKPEDTAVYFCALGVTAACSDNPYFWGQGTQVTVSSGSGSGSQVQLVESGGGSVQAGGSLTLSCVASGVTLGRHAIGWFRQAPGKERERVSCIRTFDGITSYVESTKGRFTISSNNAMNTVYLQMNSLKPEDTAVYFCALGVTAACSDNPYFWGQGTQVTVSS

>  <experimental readout>
ND 50 MN assay, live virus

>  <result value>
0.02

$$$$
>  <binder>
H3 trimer (VHH) QVQLVESGGGLVKTGGSLRLSCAASGRTFSTYSMGWFRQAPGKEREFVAGMRWTGSSTFYSDSVKGRFTVSRNNAKDTVYLHMNSLKPEDTAVYYCAITTIVRAYYTEYTEADFGSWGQGTQVTVSSGAVLAPQVQLVESGGGLVKTGGSLRLSCAASGRTFSTYSMGWFRQAPGKEREFVAGMRWTGSSTFYSDSVKGRFTVSRNNAKDTVYLHMNSLKPEDTAVYYCAITTIVRAYYTEYTEADFGSWGQGTQVTVSSGSGSGSQVQLVESGGGLVKTGGSLRLSCAASGRTFSTYSMGWFRQAPGKEREFVAGMRWTGSSTFYSDSVKGRFTVSRNNAKDTVYLHMNSLKPEDTAVYYCAITTIVRAYYTEYTEADFGSWGQGTQVTVSS

>  <experimental readout>
ND 50 MN assay, live virus

>  <result value>
0.3

$$$$
>  <binder>
A8 trimer (bispecific antibody) QVQLVESGGGLVQAGGSLRLSCAASGGTFSTAAMGWFRQAPGEERECVASIGWRGVRTWYADSVKGRFTISRDNPQNTVYLQMNNLKSGDTAVYYCAASVGNYGLPWAHFEYDFWGQGIQVTVSSGSGSGSQVQLVESGGGLVQAGGSLRLSCAASGGTFSTAAMGWFRQAPGEERECVASIGWRGVRTWYADSVKGRFTISRDNPQNTVYLQMNNLKSGDTAVYYCAASVGNYGLPWAHFEYDFWGQGIQVTVSSGSGSGSQVQLVESGGGLVQAGGSLRLSCAASGGTFSTAAMGWFRQAPGEERECVASIGWRGVRTWYADSVKGRFTISRDNPQNTVYLQMNNLKSGDTAVYYCAASVGNYGLPWAHFEYDFWGQGTQVTVSSKHHHHHH

>  <experimental readout>
ND 50 MN assay, live virus

>  <result value>
0.1

$$$$
